- tested-target: T1, Engineered human orexin receptor 2 (OX2R) truncated after R389, ICL3 residues V261-A291 deleted, with an … (human, UniProt O43614 1-389, residues V261–A291 deleted, biotin on the Avi-tag (BirA biotin-protein ligase))
- T1 construct: Orexin receptor type 2 (OX2R), human, truncated after residue R389, part of ICL3 (residues V261-A291) deleted; M1 is said to be present in the construct; Detergent-solubilised receptor (DDM/CHS); The PDB entries hold the construct without the Avi-tag; also called engineered OX2R; orexin receptor type 2; source: biotinylated with BirA; not shown: Avi-tag, N-terminal, kept
- T1 sequence (looked up): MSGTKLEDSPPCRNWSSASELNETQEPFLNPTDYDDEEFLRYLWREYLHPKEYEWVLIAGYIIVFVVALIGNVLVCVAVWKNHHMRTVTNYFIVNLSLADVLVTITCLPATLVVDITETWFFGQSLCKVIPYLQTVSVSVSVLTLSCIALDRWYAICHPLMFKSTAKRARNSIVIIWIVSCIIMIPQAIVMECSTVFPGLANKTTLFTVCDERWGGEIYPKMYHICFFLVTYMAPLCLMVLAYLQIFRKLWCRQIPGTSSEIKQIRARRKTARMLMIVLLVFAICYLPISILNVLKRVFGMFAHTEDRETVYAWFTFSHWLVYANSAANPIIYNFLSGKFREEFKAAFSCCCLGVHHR
- measurement-description: grating-coupled interferometry; WAVE system (Creoptix); agonist-bound OX2R immobilised via the biotinylated Avi-tag on a neutravidin-coated WAVEchip 4PCP; nanobody as analyte
- applied-conditions: both partners purified
I'd appreciate it if you could supply Kd values for the items below.
Could you give me the number in nM? Just the number is fine.

Output Kd of Synthetic nanobody clone 56 (VHH, synthetic nanobody selected from the libraries of Zimmermann and coworkers by ribosome display and phage display; Host, tags and purification are told only for Sb51 (clone 51); also called Clone No. 56) VHH: QVQLVESGGGLVQAGGSLRLSCAASGFPVVSYNMKWYRQAPGKEREWVAAIYSFGSLGSWTHYADSVKGRFTISRDNAKNTVYLQMNSLKPEDTAVYYCHVYVGATYYGQGTQVTVS 0.5

Output Kd of Synthetic nanobody clone 13 (VHH, synthetic nanobody selected from the libraries of Zimmermann and coworkers by ribosome display and phage display; Host, tags and purification are told only for Sb51 (clone 51); also called Clone No. 13) VHH: QVQLVESGGGLVQAGGSLRLSCAASGFPVNAREMYWYRQAPGKEREWVAAIVSKGSHTEYADSVKGRFTISRDNAKNTVYLQMNSLKPEDTAVYYCNVKDFGWWAVYYDYWGQGTQVTVS 12
